Assay: Cycloheximide Counterscreen for Small Molecule Inhibitors of Shiga Toxin; also: read at 38.3 µM for the half of the compounds with a filed dose
Details: cell reporter, cycloheximide protein synthesis inhibition counterscreen
About 37,000 (12%) of roughly 300,000 compounds were called active. Rule as the data show it: active = max response mostly above about 13% (no sharp cut-off); inactive = mostly below about 14%. Shown is part of a subset that was picked to be rich in actives.
The reply should be one of these categories: Y = active, N = inactive

These solved cases illustrate the format of a correct answer.
Compound: O=C(NCc1ccccc1)C(c1ccccc1)N(C(=O)c1csnn1)c1ccc(F)cc1 (centres undefined)
Qualitative label: N

Compound: CC1=C(C(N)=O)C(c2ccc(Br)cc2)n2ncnc2N1 (centres undefined)
Qualitative label: N

Would you mind telling me which call this test gave CC(=O)c1ccc(NC(=O)C(C)NCc2ccc(Cl)cc2)cc1 (centres undefined) ?
Y

Would you mind telling me which call this test gave COC(=O)c1c(CCl)noc1C(=O)NC(C)C ?
N

Would you mind telling me which call this test gave Cc1nc(NC(=O)C23CCC(C)(C(=O)O2)C3(C)C)sc1C (centres undefined) ?
N

Would you mind telling me which call this test gave O=C1CSC(=S)N1c1ccc(Cl)c(Cl)c1 ?
N

Would you mind telling me which call this test gave CN1C(=O)c2ccc(NC(=O)C3CCCCC3)cc2C1=O ?
N

Would you mind telling me which call this test gave Cc1c(C(=O)NCc2ccccc2)cnn1-c1ccccc1 ?
N

Would you mind telling me which call this test gave COc1nc(NCc2ccc(Cl)cc2)nc(OC)n1 ?
N

Would you mind telling me which call this test gave COc1cc(N/C=C2\CC(=O)NC(C)=C2C#N)cc(OC)c1OC ?
N

Would you mind telling me which call this test gave COc1ccc(CNc2c(CO)cnc3c2cnn3C)cc1 ?
N

Would you mind telling me which call this test gave COc1nnc(-c2ccc(C)c(S(=O)(=O)N(C)C)c2)c2ccccc12 ?
N

Would you mind telling me which call this test gave Cc1cccc(N(C(=O)c2csnn2)C(C(=O)NCc2ccccc2)c2ccncc2)c1 (centres undefined) ?
N

Would you mind telling me which call this test gave CC(=O)c1ccc(NC(=O)C(C)N(C)CC(=O)Nc2ccccc2Cl)cc1 (centres undefined) ?
N

Would you mind telling me which call this test gave CCOC(=O)c1cc(C)sc1NC(=O)C1CCC1 ?
N

Would you mind telling me which call this test gave CCC(=O)NC(Nc1nc2ccc(C)cc2s1)(C(=O)OC)C(F)(F)F (centres undefined) ?
N

Would you mind telling me which call this test gave CC(NCc1cccs1)C(=O)Nc1cc(Cl)cc(Cl)c1 (centres undefined) ?
N

Would you mind telling me which call this test gave CNC(=O)CSc1nnc(CCc2ccccc2)n1-c1ccccc1 ?
N

Would you mind telling me which call this test gave CS(=O)(=O)c1ccc2nc(NC(=O)C3CCCCC3)sc2c1 ?
N

Would you mind telling me which call this test gave COc1cc(CCC(=O)Nc2ccncc2Cl)cc(OC)c1OC ?
N

Would you mind telling me which call this test gave CC(C)C(C)NC(=O)COc1nc2ccccc2nc1N(C)C1CCCCC1 (centres undefined) ?
N

Would you mind telling me which call this test gave Cc1ccc(NS(=O)(=O)c2ccc3c(c2)n(C)c(=O)c(=O)n3C)c(C)c1 ?
N

Would you mind telling me which call this test gave CC1CCCCC1NC(=O)C1CCCN1S(=O)(=O)c1cccc2nsnc12 (centres undefined) ?
N

Would you mind telling me which call this test gave COCCCNc1nc2ccccc2nc1NS(=O)(=O)c1ccc(F)cc1 ?
N

* * *

Experiment: Cycloheximide Counterscreen for Small Molecule Inhibitors of Shiga Toxin; also: read at 38.3 µM for the half of the compounds with a filed dose
Settings: cell reporter, cycloheximide protein synthesis inhibition counterscreen
About 37,000 (12%) of roughly 300,000 compounds were called active. Rule as the data show it: active = max response mostly above about 13% (no sharp cut-off); inactive = mostly below about 14%. The entries come from a sample that favours actives as a whole.
The reply should be one of these categories: active, inactive

These solved cases illustrate the format of a correct answer.
Compound: NC(=O)CC(NC(=O)Cc1cccc2ccccc12)c1ccc(NCc2cc(F)ccc2F)c([N+](=O)[O-])c1 (configuration not stated)
Qualitative label: inactive
--
Compound: Cc1ccc2cc3cc(C(=O)N4CCCCCC4)oc3nc2c1
Qualitative label: active
--
Compound: COc1cccc(C2SCC(=O)N2c2cccc(C)c2)c1OC (configuration not stated)
Qualitative label: inactive

Would you mind telling me which call this test gave Cc1ccc(NC(=O)CN2C(=O)NC(C)(c3ccc(Cl)cc3)C2=O)c(Br)c1 (configuration not stated) ?
inactive

Would you mind telling me which call this test gave O=C1CSC(c2cccc(F)c2)N1c1ccc(O)cc1 (configuration not stated) ?
inactive
